tested on: TDP-43 (Homo sapiens, UniProt Q13148 1-414)
Sequence (Q13148 whole entry): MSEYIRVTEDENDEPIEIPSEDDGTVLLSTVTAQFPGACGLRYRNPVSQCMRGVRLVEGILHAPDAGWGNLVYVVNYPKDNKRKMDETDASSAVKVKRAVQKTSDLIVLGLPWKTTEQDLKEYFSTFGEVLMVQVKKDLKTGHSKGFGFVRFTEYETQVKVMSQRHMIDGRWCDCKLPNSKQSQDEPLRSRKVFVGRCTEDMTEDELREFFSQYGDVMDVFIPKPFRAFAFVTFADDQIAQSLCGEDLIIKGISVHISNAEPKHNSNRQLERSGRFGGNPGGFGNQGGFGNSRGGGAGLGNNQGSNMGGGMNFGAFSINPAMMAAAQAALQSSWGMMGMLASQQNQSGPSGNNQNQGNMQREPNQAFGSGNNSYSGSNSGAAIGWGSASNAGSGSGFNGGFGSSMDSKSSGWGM
experimental protocol: RNA Bind-n-Seq with designed 260-mer pool; 25 mM Tris-HCl, 150 mM KCl, 3 mM MgCl2, BSA (printed 500 mg/mL), 20 units/mL SUPERase IN; pH not stated; 500 nM RNA pool, 1 h, 4 C; TDP-43 5, 50, 500 nM; high values mean tight binding
condition description: protein: recombinant; tags: SBP (GST cleaved off with PreScission; pGEX-GST-SBP)
In all, about 9,900 sequences were measured (“r (bound/input frequency ratio)”: median about 0.7, highest 2% from about 6.5 on). The sample as a whole holds a higher share of the highest values than the screen did.

binder	binding signal
ENSMUSG00000061578.1182|Ksr2 (ssRNA) RNA: GGGAGUUCUACAGUCCGACGAUCGCUUCGAUAUCCGCAUGCUAUGUCCUCGGGUGUCUCUGCUGUAUAUAGGCCAGUCACAAGCCCUUCUAAAAGCCUGCUCUUGUCUGCUUUUGUUUCUCCACCAUGCCCCCUGCCACCUCUUCUGACAGUGCUCAGAUUUAUCAGCCACCUGACCCACAGACCCAUAUGGACACACUAGAAAGCCCAUCCUAGGUCUUUCCAUGGUCUCUCACACCCCUGUCCCCGUCCCCUCCACCCCCCGGCAGCAUGCUUCACUCUAUGAAUGAGCCGCUGGGAUAUUCUCUUGCGGUCGCACUAGUGUGGAAUUCUCGGGUGUCAAGG	0.904 R (bound/input frequency ratio)
ENSMUSG00000028439.291|Fam219a|94:98 (ssRNA) RNA: GGGAGUUCUACAGUCCGACGAUCGCUUCGAUAUCCGCAUGCUAGUGUCUCUCCUUCAGGCGCCCCACAUGCCAGCAUUUCCACCCUCUGGAUUCUCCUCACAUGUCACUCUCCAGGUGCCGGGGCCUAGAGUGGGCCACACAGAAGGAGGAGUGGGGCUGUUGGCUUAGGAAGGGAAGCGCCUCUCUGUACACCACAACCAGGAGCUGCCCACUCCCCACACCUCCAGCCCAGCUUACCUCCCCCUAGUACAGAGAUCCUAAUUAGAUAAGAAAAUGCCAAGGGAGGCAAGCCAGAGAAAGCACUCUUGCGGUCGCACUAGUGUGGAAUUCUCGGGUGUCAAGG	0.63 R (bound/input frequency ratio)
ENSMUSG00000061578.919|Ksr2|82:86 (ssRNA) RNA: GGGAGUUCUACAGUCCGACGAUCGCUUCGAUAUCCGCAUGCUACAAUUCUACCCAUGACAGACAUGUCCCAUCCAUGAGCCCAGAUAGUCAAAGACUUCAGCACAAGGGUGUUUAGAGUAGGCACACACGAAGUAUCAAUAAGGUUAUUGAGAUGAGGAUUUAGAAAGAUCCAUGUAUAAAAGGUCUAGAAGGAUGAAGAUCUAAAACAAGAAGACUGCAUGUUAACGCUCCUGCCACUGUUGCCCCUUCCUUUACCCUUGGCAGACAUUGCUAAUCAAUCUCAGCACAGUUUCCAACCACAGCUCUUGCGGUCGCACUAGUGUGGAAUUCUCGGGUGUCAAGG	0.397 R (bound/input frequency ratio)
ENSMUSG00000029636.316|Wasf3 (ssRNA) RNA: GGGAGUUCUACAGUCCGACGAUCGCUUCGAUAUCCGCAUGCUAUGGCAAAACUUUUUUUGGUAAGGUCCUUAUGCUCUCAGGGUGGAGGGAAGACAUUAAAGCUACGCAGCCAUUGUCAGGAUUUUUUCUACUGAUGUCACAUCAGAAUAUAACUAGUGGCUCCUUACUCACAAAUGUUCACGAGCUUCUCCGUUGUCACUUGUCCUGUAGUUUUGCCAACAAGUUAAUUUUAGUUUGAUUUUAUAGCUAGAGAGAAAGCUUUUGCCCGUUGCAUUCUGUAACCUUCAAAAGAAUGAGAAACGCUCUUGCGGUCGCACUAGUGUGGAAUUCUCGGGUGUCAAGG	0.157 R (bound/input frequency ratio)

Hey, just so you know, these numbers are from paper PMC12864922.
